System: Human tumour cells (cell line panel)
test_protocol: Proliferation assay: cell line panel (crystal violet, 4 days)
Format: cell-based
condition_label: NCI-H69, lung cancer, small cell, 4000 cells/well, read-out: Result Category, IC50 (mean)
assay_readout: IC50

Prompt: Quick one: IC50 of Brc1cnn2c(NCc3nc4ccccc4[nH]3)nc(N3CCOCC3)nc12 ?
Completion: 30 to 100 nM

----------
Tested on: Human tumour cells (cell line panel)
test_protocol: Proliferation assay: cell line panel (crystal violet, 4 days)
Type: cell-based
condition_label: LNCap, prostate cancer, 5000 cells/well, read-out: Result Category, IC50 (mean)
assay_readout: IC50

Prompt: Quick one: IC50 of Brc1cnn2c(NCc3nc4ccccc4[nH]3)nc(N3CCOCC3)nc12 ?
Completion: 30 to 100 nM
